- MEASUREMENT_DESCRIPTION: qHTS assay to identify small molecule agonists of the estrogen receptor alpha (ER-alpha) signaling pathway in the presence of an antagonist - cell viability counter screen (AID 1259386);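 note: cells exposed to compounds for 22 h at 37 °C before the viability read; % is set by controls: 0 for no effect and ±100 for the full control effect; nearly all actives have a fitted effect of over 30% in size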
- CONDITIONS: VM7Luc4E2 viability, CellTiter-Fluor fluorescence, 22 h; series mostly up to 92.4 µM
Inconclusive results are not listed. Active and inactive are the calls of the source. Calls come from the whole dose curve; as a rule, active = well fitted cell-killing curve with a large enough effect in the repeat runs; inconclusive = weak or mixed curves, or effect the other way; inactive = no such curve, though single readings can be large or run the other way.
RECORDED_METRIC: activity change, negative = cytotoxicity

COC(=O)c1ccc(OC)cc1 : inactive
Cc1cc(NS(=O)(=O)c2ccc(N)cc2)nc(C)n1 : inactive
CN(CCCN1c2ccccc2CCc2ccccc21)CC(=O)c1ccc(Cl)cc1 : inactive
OC[C@H]1O[C@@H](O[C@H]2[C@H](O)[C@@H](O)[C@H](O)O[C@@H]2CO)[C@H](O)[C@@H](O)[C@H]1O : inactive
COc1ccccc1OCC(O)COC(N)=O (stereo unspecified) : inactive

Exercise: Item "CCOC(=O)c1ccccc1O" has what recorded activity change, negative = cytotoxicity?
Key: inactive

* * *

- MEASUREMENT_DESCRIPTION: qHTS assay to identify small molecule agonists of the estrogen related receptor (ERR) signaling pathway from Tox21 library (AID 1224849); note: % is set by controls: 0 for no effect and ±100 for the full control effect; nearly all actives have a fitted effect of over 15% in size
- CONDITIONS: ERR reporter cell line, ONE-Glo luciferase, 18 h; at 92.4 µM (top of the series) unless noted
The source made the active and inactive calls. Calls come from the whole dose curve.
The reply should be one of these categories: true (active), false (inactive)

Would you please look over these solved cases?
Cc1ccc([N+](=O)[O-])c(N)c1 : false
O=C(O[C@@H](C(=O)O)[C@@H](OC(=O)c1ccccc1)C(=O)O)c1ccccc1 : false
CC(C)S : false

Attention now turns to another entry.
Exercise: GET /call?item= "CCCCCCCCCC#N" returns the recorded outcome of this test.
Key: false

* * *

- TARGET_ENTITY: Nuclear receptor subfamily 1 group I member 2 (Rattus norvegicus)
- MEASUREMENT_DESCRIPTION: Rat pregnane X receptor (rPXR) activation by small molecules, qHTS assay (AID 1346983); note: % is set by controls: 0 for no effect and ±100 for the full control effect; nearly all actives have a fitted effect of over 20% in size
- CONDITIONS: rPXR luciferase reporter cells, One-Glo luminescence, 24 h; hits give high values
Results filed as inconclusive are left out.
Quick reference: max activation of the listed items.
Just the number please, in %, no unit attached.

Below, 6 molecules whose answers are already recorded.
Cc1cccc(C)c1NC(=O)CN1CCCCCC1 : -0.265
N#Cc1ccc(C(c2ccc(C#N)cc2)n2cncn2)cc1 : 0.445
C[C@@H]1CN(c2c(F)c(F)c3c(=O)c(C(=O)O)cn(C4CC4)c3c2F)C[C@H](C)N1 : -2.98
COc1ccccc1OCC(O)COC(N)=O (configuration not stated) : 0.101
CCN(CC)CC1CCCCN1CC(=O)N1c2ccccc2C(=O)Nc2cccnc21 (configuration not stated) : -0.899
CN1C(=O)CC(c2ccccc2)C1=O (configuration not stated) : -2.73

Next molecule, please.
Exercise: Entry under review: "C[C@@H](N)C(=O)O" . Reported max activation?
Key: -2.77

* * *

- MEASUREMENT_DESCRIPTION: qHTS assay for small molecule disruptors of the mitochondrial membrane potential (AID 720635); note: potency is the fitted concentration of half-maximal effect
- CONDITIONS: HepG2 mitochondrial membrane potential, Mito-MPS dye ratio; series mostly up to 83.2 µM
Records with an inconclusive call do not appear. Activity calls are given as the source filed them. Calls follow the shape of the dose curve; as a rule, active = well fitted inhibition curve with a large enough effect in the signal ratio in the repeat runs; inconclusive = weak or mixed curves, or effect the other way; inactive = flat fitted curve, though single readings scatter; the % refers to the signal ratio.
RECORDED_METRIC: Potency

The cases that follow already have their Potency on record.
CCCC1CCC(=O)O1 (stereo unspecified) : inactive
CC(C)(C)c1cccc(O)c1 : 48.6 µM (active)
ClC(Cl)Cl : inactive
CCN(CC)C(=O)N(CC)CC : inactive
C=CC1CO1 (stereo unspecified) : inactive
OCc1ccccc1O : inactive
Cc1ccc(C=O)s1 : inactive
NC(=O)Cc1cccc(C(=O)c2ccccc2)c1N : inactive
O=C(O)[C@@H]1CSCN1 : inactive
CC(C)(C)c1ccc(OC(=O)c2ccccc2O)cc1 : 24.3 µM (active)

Exercise: May I ask what Potency has been recorded for "O=C(O)c1ccccc1Nc1cc(Cl)ccc1C(=O)O" ?
Key: inactive

Exercise: Moving on to "COc1nc(C)nc(NC(=O)NS(=O)(=O)c2ccccc2OCCCl)n1"
Key: inactive

Exercise: Another: "O=C1CCCCCCCCCCC(=O)OCCO1"
Key: 27.3 µM (active)

Exercise: Further, for "N#Cc1ccc(C(c2ccc(C#N)cc2)n2cncn2)cc1" ?
Key: inactive

Exercise: And then "C=Cc1ccccc1" , what is it?
Key: inactive

Exercise: Request: "FC(F)(F)c1ccccc1"
Key: inactive

* * *

- MEASUREMENT_DESCRIPTION: qHTS RealTime-Glo MT Cell Viability Assay in HepG2 cells - 40 hour (AID 1224870); note: % is set by controls: 0 for no effect and ±100 for the full control effect; nearly all actives have a fitted effect of over 50% in size
- CONDITIONS: RealTime-Glo luminescence; series mostly up to 76.8 µM
- Excerpt: National Center for Advancing Translational Sciences [NCATS] NIH Chemical Genomics Center [NCGC] U.S. Environmental Protection Agency [EPA] National Institutes of Environmental Health Sciences [NIEHS] National Toxicology Program [NTP] U.S. Food and Drug Administration [FDA] Measure of cell viability is critical in the cell-base assay. Analysis of cell viability is necessary for the characterization of cell responses to cytotoxic drugs and environmental stress. […]
Records with an inconclusive call do not appear. Calls of active or inactive are those of the source. Calls come from the whole dose curve; as a rule, active = well fitted cell-killing curve with a large enough effect in the repeat runs; inconclusive = weak or mixed curves, or effect the other way; inactive = flat fitted curve, though single readings scatter.
RECORDED_METRIC: activity change, negative = cytotoxic

Study these solved cases before continuing.
CCc1nnc(NS(=O)(=O)c2ccc(N)cc2)s1 : inactive
CC(C)NCC(O)COc1ccc(CCOCC2CC2)cc1 (stereo not drawn) : inactive
CC(=O)N[C@@H](CC(C)C)C(=O)O : inactive
O=C(CCCl)NCc1ccccc1 : inactive

Exercise: What does the record list as activity change, negative = cytotoxic for C=CC(C)(O)CC/C=C(\C)CCC=C(C)C (stereo not drawn) ?
Key: inactive

Exercise: Next compound up: "CC[C@H]1CC[C@H](NCc2cc3c(cc2OC)[C@H]2C[C@H]2C(=O)N3C)[C@H](c2ccccc2)N1"
Key: inactive

Exercise: Now consider "CC(C)C1=CC2=CC[C@@H]3[C@](C)(CCC[C@@]3(C)C(=O)O)[C@H]2CC1" and answer again.
Key: inactive

* * *

- TARGET_ENTITY: Luciferin 4-monooxygenase (Photinus pyralis)
- MEASUREMENT_DESCRIPTION: qHTS assay to identify small molecule inhibitors of firefly luciferase (AID 1224835); note: nearly all actives have a fitted effect of over 25% in size; note: potency is the fitted concentration of half-maximal effect
- CONDITIONS: purified P. pyralis luciferase, luminescence inhibition; series mostly up to 115 µM
Results filed as inconclusive are left out. The source made the active and inactive calls. The call rests on the fitted dose curve; in most records, active means well fitted inhibition curve with a large enough effect in the repeat runs; inconclusive means weak or mixed curves; inactive means flat fitted curve, though single readings scatter.
RECORDED_METRIC: Potency

Example cases with answers are listed next.
O=C(C(Cl)Cl)N1CCOC12CCCCC2 : inactive
O=C(O[C@@H](C(=O)O)[C@@H](OC(=O)c1ccccc1)C(=O)O)c1ccccc1 : inactive
C[C@]12CCC(=O)C=C1CC[C@@H]1[C@@H]2CC[C@@]2(C)[C@H]1CC[C@]2(O)C(=O)CO : inactive
CC(C)(C)c1ccc(OC(=O)c2ccccc2O)cc1 : 1.78 µM (active)

Exercise: Reported Potency for "Cc1ccsc1C(=CCCN1CCC[C@@H](C(=O)O)C1)c1sccc1C" : what is it?
Key: inactive

Exercise: "CC(C)C(=O)OC/C=C/c1ccccc1" ?
Key: 71 µM (active)

Exercise: Queued: CC1(C)S[C@@H]2[C@H](NC(=O)C(C(=O)O)c3ccccc3)C(=O)N2[C@H]1C(=O)O (stereo not given in full)
Key: inactive

Exercise: Similarly, "Nc1ccc(Oc2ccc(N)c(N)c2)cc1" ?
Key: 7.96 µM (active)

Exercise: What would you report for CCCCC1CCC(=O)O1 (stereo not given) ?
Key: inactive

Exercise: How about "O=C1Nc2ccc([N+](=O)[O-])cc2C1=O" ?
Key: inactive

* * *

- MEASUREMENT_DESCRIPTION: qHTS RealTime-Glo MT Cell Viability Assay in HEK293 cells - 16 hour (AID 1224872); note: nearly all actives have a fitted effect of over 50% in size
- CONDITIONS: RealTime-Glo luminescence; series mostly up to 76.8 µM
Results filed as inconclusive are left out. The source made the active and inactive calls. Calls follow the shape of the dose curve; as a rule, active = well fitted cell-killing curve with a large enough effect in the repeat runs; inconclusive = weak or mixed curves, or effect the other way; inactive = flat fitted curve, though single readings scatter.
Thanks in advance; please answer with one of these: active, inactive

Cc1ccc([N+](=O)[O-])c(N)c1 : inactive
CC(C)Nc1nc(N)nc(Cl)n1 : inactive
CCCCCOc1ccc(C2SC(=O)NC2=O)cc1OCC (centres undefined) : inactive

Exercise: Test call for this molecule, please: "COC(=O)c1ccc(OC)cc1"
Key: inactive

Exercise: Now try "c1ccc(CN(CC2=NCCN2)c2ccccc2)cc1" .
Key: inactive

Exercise: Repeat with "ICCc1ccccc1"
Key: inactive

Exercise: Check "CN(C)CCOc1ccccc1Cc1ccccc1" too.
Key: inactive

Exercise: Here is the next molecule: CC(CNC1CCCCC1)OC(=O)c1ccccc1 (centres undefined)
Key: inactive

Exercise: Try this molecule next: "Cc1ccsc1C(=CCCN1CCC[C@@H](C(=O)O)C1)c1sccc1C"
Key: inactive

Exercise: What do you have for "CCC(=O)c1ccc2c(c1)N(CCCN(C)C)c1ccccc1S2" ?
Key: active

Exercise: Please answer likewise for CC(=O)OC1C2(C)CCC(C2)C1(C)C (centres undefined)
Key: inactive

Exercise: Also "C1CSCCS1" , if possible.
Key: inactive

Exercise: Request: "CN1CCN(c2c(F)cc3c(=O)c(C(=O)O)cn4c3c2SCC4)CC1"
Key: inactive

Exercise: Let us now turn to CCCCC(CC)COC(=O)COc1cc(Cl)c(Cl)cc1Cl (centres undefined)
Key: inactive

Exercise: What do we get for "CC/C=C\CCOC(=O)CCCCC" ?
Key: inactive

Exercise: And what about the molecule "CCCCCCCCc1ccc(S(=O)(=O)O)cc1" ?
Key: inactive

Exercise: Now consider CNCCC(Oc1ccccc1OC)c1ccccc1 (centres undefined) and answer again.
Key: inactive

Exercise: Also, "CC(C)c1ccccc1" please.
Key: inactive

Exercise: Can you handle "CC1=C2[C@H](/C=C(\C)C(=O)O)CC[C@@H](C)[C@H]2CC1" next?
Key: active

Exercise: Same for "CCOc1ccc(OCC)c(Cl)c1"
Key: inactive

Exercise: Please give the result for "CCOC(=O)c1ccccc1O" too.
Key: inactive

Exercise: And for CC1(C)S[C@@H]2[C@H](NC(=O)C(C(=O)O)c3ccccc3)C(=O)N2[C@H]1C(=O)O (some centres undefined) ?
Key: inactive

Exercise: Ok, now "CCCNC(C)(C)COC(=O)c1ccccc1"
Key: inactive

Exercise: Can you check "Cc1nc(-c2ccccn2)ncc1C(=O)Nn1cc(C)c2cc(F)ccc21" next?
Key: active

Exercise: Query "C=CCCCCCCCCO" next
Key: inactive

Exercise: Field entry: "O=C1C=CC(=O)O1"
Key: inactive
